Test system: Mus musculus
assay-overview: Clastogenic effect on C57BL mouse assessed as number of metaphase chromosomal centromere/centromeric fusion in bone marrow cells at 100 mg/kg, ip after 24 hrs
Type: functional
test-conditions: route intraperitoneal
The entries below are paired with their reported Activity.
Answer using only a numeral; do not append any unit.

Q: Name the recorded Activity for `COP(=O)(CNC1(C(=O)O)CCCC1)OC` .
Ans: 10

Q: Activity lookup needed for `COP(=O)(CNC1(C(=O)O)CCCCCCC1)OC` , thanks.
Ans: 11

Q: Can you share its Activity? I mean this compound: `COP(=O)(CNC1(C(=O)O)CCCCC1)OC`
Ans: 20

Q: Dear colleague, I am looking for the recorded Activity of the following compound: `COP(=O)(CNC1(C(=O)O)CCCCCC1)OC`
Ans: 3

Q: // lookup Activity for `COP(=O)(CNC1(C(=O)O)CCCCCCCCCCC1)OC`
Ans: 11

###

Tested on: Mus musculus
assay-overview: Clastogenic effect on C57BL mouse assessed as number of metaphase chromosome telomere/telomeric fusion in bone marrow cells at 100 mg/kg, ip after 24 hrs
Format: functional
test-conditions: route intraperitoneal
measurement-label: Activity
Output: the number by itself.

>>> data_value("COP(=O)(CNC1(C(=O)O)CCCCC1)OC")
0
>>> data_value("COP(=O)(CNC1(C(=O)O)CCCC1)OC")
0
>>> data_value("COP(=O)(CNC1(C(=O)O)CCCCCCC1)OC")
1

Q: Please look up its Activity: `COP(=O)(CNC1(C(=O)O)CCCCCCCCCCC1)OC`
Ans: 0

Q: GET /values?readout=Activity&item= `COP(=O)(CNC1(C(=O)O)CCCCCC1)OC`
Ans: 0

###

System: K562
assay-overview: Cytotoxicity against human K562 cells after 72 hrs by MTT assay
Assay type: functional, cell-based
test-conditions: K562, 72 h
IC50: recorded values
Use µM as the unit, but write only the number.

>>> data_value("COP(=O)(CNC1(C(=O)O)CCCCCCC1)OC")
79.1

Q: So what's the measured IC50 for this one? `COP(=O)(CNC1(C(=O)O)CCCCC1)OC`
Ans: 128

Q: Fill blank: measured IC50 of the molecule `COP(=O)(CNC1(C(=O)O)CCCCCC1)OC` is ____.
Ans: 101

Q: I am curious: what IC50 value has been reported for `COP(=O)(CNC1(C(=O)O)CCCCCCCCCCC1)OC` ?
Ans: 47.1
